# Tested on: CCRF-CEM
# assay-summary: Antiproliferative activity against human CCRF-CEM cells assessed as cell growth at 10^-8 M after 48 hrs by sulforhodamine B assay
# Type: functional
# recorded-conditions: read-out: Activity
recorded-metric: growth at 0.01 µM
Don't forget the unit after the number, please.

input: Give the measured growth at 0.01 µM of CNC(=O)c1cc(Oc2ccc3nc(NC(=O)c4cc(C(F)(F)F)cc(C(F)(F)F)c4)sc3c2)ccn1 .
output: 99%

input: I would be grateful if you could share the reported growth at 0.01 µM for CNC(=O)c1cc(Oc2ccc3nc(NC(=O)Nc4ccc(Cl)c(Cl)c4)sc3c2)ccn1 .
output: 102%

input: Need growth at 0.01 µM of CNC(=O)c1cc(Oc2ccc3nc(NC(=O)Nc4ccc(Cl)c(C(F)(F)F)c4)sc3c2)ccn1 , thanks.
output: 105%

input: Reported growth at 0.01 µM for CNC(=O)c1cc(Oc2ccc3nc(NC(=O)Nc4cc(C(F)(F)F)cc(C(F)(F)F)c4)sc3c2)ccn1 : what is it?
output: 111%

---

# assay-summary: Antiproliferative activity against human UO31 cells assessed as cell growth at 10^-7 M after 48 hrs by sulforhodamine B assay
# Format: functional
# recorded-conditions: UO-31, 48 h, read-out: Activity
Exercise: for every item that follows, state its recorded growth at 0.1 µM.
Express your answer in %, writing the number without its unit.

input: // query growth at 0.1 µM value for entry CNC(=O)c1cc(Oc2ccc3nc(NC(=O)Nc4cc(C(F)(F)F)cc(C(F)(F)F)c4)sc3c2)ccn1
output: 94

input: Given the entry CNC(=O)c1cc(Oc2ccc3nc(NC(=O)c4cc(C(F)(F)F)cc(C(F)(F)F)c4)sc3c2)ccn1 , report its measured growth at 0.1 µM.
output: 86

input: Param item = CNC(=O)c1cc(Oc2ccc3nc(NC(=O)Nc4ccc(Cl)c(C(F)(F)F)c4)sc3c2)ccn1 ; retrieve measured growth at 0.1 µM.
output: 107

input: Given the entry CNC(=O)c1cc(Oc2ccc3nc(NC(=O)Nc4ccc(Cl)c(Cl)c4)sc3c2)ccn1 , report its measured growth at 0.1 µM.
output: 100

---

# Tested on: K562
# assay-summary: Antiproliferative activity against human K562 cells assessed as growth inhibition after 48 hrs by sulforhodamine B assay
# Assay type: functional
# recorded-conditions: K562, 48 h
What TGI was measured for each of the following?
Entry rule: numbers only, all in µM.

input: So what does the record say about TGI for CNC(=O)c1cc(Oc2ccc(NC(=O)Nc3ccc(Cl)c(C(F)(F)F)c3)cc2)ccn1 ?
output: 100

input: Dear colleague, I am looking for the recorded TGI of the following compound: CNC(=O)c1cc(Oc2ccc3nc(NC(=O)Nc4cc(C(F)(F)F)cc(C(F)(F)F)c4)sc3c2)ccn1
output: 4.86

---

Would you kindly list growth at 0.01 µM for each of these compounds?
# Test system: MDA-MB-468
# assay-summary: Antiproliferative activity against human MDA-MB-468 cells assessed as cell growth at […] after 48 hrs by sulforhodamine B assay
# Assay type: functional
# recorded-conditions: MDA-MB-468, 48 h, read-out: Activity
State the answer as a number, implicitly in %.

input: What value of measured growth at 0.01 µM is listed for CNC(=O)c1cc(Oc2ccc3nc(NC(=O)Nc4cc(C(F)(F)F)cc(C(F)(F)F)c4)sc3c2)ccn1 ?
output: 84

input: Please report the recorded growth at 0.01 µM for CNC(=O)c1cc(Oc2ccc3nc(NC(=O)c4cc(C(F)(F)F)cc(C(F)(F)F)c4)sc3c2)ccn1 .
output: 92

input: # lookup: growth at 0.01 µM of CNC(=O)c1cc(Oc2ccc3nc(NC(=O)Nc4ccc(Cl)c(C(F)(F)F)c4)sc3c2)ccn1
output: 86

input: Returns the measured growth at 0.01 µM for the input compound. Input: CNC(=O)c1cc(Oc2ccc3nc(NC(=O)Nc4ccc(Cl)c(Cl)c4)sc3c2)ccn1
output: 94

---

# System: T47D
# assay-summary: Antiproliferative activity against human T47D cells assessed as cell growth at 10^-5 M after 48 hrs by sulforhodamine B assay
# Format: functional
# recorded-conditions: read-out: Activity
Could you please report measured growth at 10 µM for the items listed next?
Quick reminder: number only, in %, skip the unit.

input: State the recorded growth at 10 µM for this entry: CNC(=O)c1cc(Oc2ccc3nc(NC(=O)Nc4ccc(Cl)cc4)sc3c2)ccn1
output: 44

input: Value lookup for growth at 10 µM; key = CNC(=O)c1cc(Oc2ccc3nc(NC(=O)c4cc(C(F)(F)F)cc(C(F)(F)F)c4)sc3c2)ccn1
output: -4

input: Need growth at 10 µM, item CNC(=O)c1cc(Oc2ccc3nc(NC(=O)Nc4ccc(Cl)c(Cl)c4)sc3c2)ccn1
output: -26

input: What growth at 10 µM value was documented for this molecule, CNC(=O)c1cc(Oc2ccc3nc(NC(=O)Nc4ccc(Cl)c(C(F)(F)F)c4)sc3c2)ccn1 ?
output: -34

input: Report growth at 10 µM for CNC(=O)c1cc(Oc2ccc3nc(NC(=O)c4ccc(Cl)c(C(F)(F)F)c4)sc3c2)ccn1 please.
output: 64.8

input: Would you mind telling me what growth at 10 µM value was observed for CNC(=O)c1cc(Oc2ccc3nc(NC(=O)c4ccc5c(c4)OCCO5)sc3c2)ccn1 ?
output: 92.1

input: Could you share which growth at 10 µM value was measured for CNC(=O)c1cc(Oc2ccc3nc(NC(=O)Nc4cc(C(F)(F)F)cc(C(F)(F)F)c4)sc3c2)ccn1 ?
output: -56

input: Report growth at 10 µM for CNC(=O)c1cc(Oc2ccc3nc(NC(=O)c4cccc(F)n4)sc3c2)ccn1 please.
output: 84.8

input: Given the molecule CNC(=O)c1cc(Oc2ccc3nc(NC(=O)Nc4ccc(F)cc4F)sc3c2)ccn1 , what is its reported growth at 10 µM?
output: 56.5

input: Field request: growth at 10 µM | item: CNC(=O)c1cc(Oc2ccc3nc(NC(=O)c4ccc5ncccc5c4)sc3c2)ccn1
output: 51.3

input: I have this molecule here, CNC(=O)c1cc(Oc2ccc3nc(NC(=O)Nc4ccc(C(F)(F)F)cc4)sc3c2)ccn1 , and I need its recorded growth at 10 µM.
output: 44.8

---

# System: U-251
# assay-summary: Antiproliferative activity against human U251 cells assessed as cell growth at 10^-5 M after 48 hrs by sulforhodamine B assay
# Type: functional
# recorded-conditions: U-251, 48 h, read-out: Activity
Please note: satisfied applies when growth at 10 µM is 20% or greater, and not satisfied applies otherwise.

input: Decide: is the reported value of growth at 10 µM for CNC(=O)c1cc(Oc2ccc3nc(NC(=O)Nc4ccc(F)cc4F)sc3c2)ccn1 equal to or greater than 20%?
output: satisfied

input: Can CNC(=O)c1cc(Oc2ccc3nc(NC(=O)Nc4ccc(Cl)c(C(F)(F)F)c4)sc3c2)ccn1 be said to have growth at 10 µM at or above 20%?
output: not satisfied

input: Dear colleague, could you confirm whether CNC(=O)c1cc(Oc2ccc3nc(NC(=O)Nc4cc(C(F)(F)F)cc(C(F)(F)F)c4)sc3c2)ccn1 has growth at 10 µM at or above 20%?
output: not satisfied

input: Decide: growth at 10 µM of CNC(=O)c1cc(Oc2ccc3nc(NC(=O)c4cccc(F)n4)sc3c2)ccn1 >= 20%?
output: satisfied

input: Answer whether growth at 10 µM of CNC(=O)c1cc(Oc2ccc3nc(NC(=O)c4ccc(Cl)c(C(F)(F)F)c4)sc3c2)ccn1 is greater than or equal to 20%.
output: satisfied

input: I'd appreciate it if you could say whether CNC(=O)c1cc(Oc2ccc3nc(NC(=O)c4ccc5ncccc5c4)sc3c2)ccn1 has growth at 10 µM at least equal to 20%.
output: satisfied

input: Hi team, for CNC(=O)c1cc(Oc2ccc3nc(NC(=O)Nc4ccc(C(F)(F)F)cc4)sc3c2)ccn1 , is the recorded growth at 10 µM at or above 20%?
output: satisfied

input: Would you say CNC(=O)c1cc(Oc2ccc3nc(NC(=O)Nc4ccc(Cl)cc4)sc3c2)ccn1 shows growth at 10 µM at minimum 20%?
output: satisfied

input: Evaluate CNC(=O)c1cc(Oc2ccc3nc(NC(=O)c4ccc5c(c4)OCCO5)sc3c2)ccn1 : growth at 10 µM at minimum 20%?
output: satisfied

input: Answer whether growth at 10 µM of CNC(=O)c1cc(Oc2ccc3nc(NC(=O)c4cc(C(F)(F)F)cc(C(F)(F)F)c4)sc3c2)ccn1 is greater than or equal to 20%.
output: not satisfied

input: Does the reported growth at 10 µM for CNC(=O)c1cc(Oc2ccc3nc(NC(=O)Nc4ccc(Cl)c(Cl)c4)sc3c2)ccn1 fall at or above the 20% mark?
output: not satisfied

---

# assay-summary: Antiproliferative activity against human RXF393 cells assessed as cell growth at 10^-8 M after 48 hrs by sulforhodamine B assay
# Assay type: functional
# recorded-conditions: RXF 393, 48 h, read-out: Activity
recorded-metric: growth at 0.01 µM (%)
Give the number; % is assumed, so skip it.

input: // query growth at 0.01 µM value for entry CNC(=O)c1cc(Oc2ccc3nc(NC(=O)Nc4ccc(Cl)c(C(F)(F)F)c4)sc3c2)ccn1
output: 87

input: Which measured growth at 0.01 µM value corresponds to CNC(=O)c1cc(Oc2ccc3nc(NC(=O)c4cc(C(F)(F)F)cc(C(F)(F)F)c4)sc3c2)ccn1 ?
output: 95

input: Dear colleague, I am looking for the recorded growth at 0.01 µM of the following compound: CNC(=O)c1cc(Oc2ccc3nc(NC(=O)Nc4cc(C(F)(F)F)cc(C(F)(F)F)c4)sc3c2)ccn1
output: 89

input: Need growth at 0.01 µM of CNC(=O)c1cc(Oc2ccc3nc(NC(=O)Nc4ccc(Cl)c(Cl)c4)sc3c2)ccn1 , thanks.
output: 99

Provenance of the data: ChEMBL document CHEMBL3797052
